Catalogue of inhibition of the binding of biotin-MAb (%) values
# MEASURED ON: T1, human CD30, native, expressed on cells (human)
# T1 construct: also called native CD30; CD30 on L540, L428, A431/CD30, Karpas299, SUDHL-1 and other CD30-positive cells
# T1 chain: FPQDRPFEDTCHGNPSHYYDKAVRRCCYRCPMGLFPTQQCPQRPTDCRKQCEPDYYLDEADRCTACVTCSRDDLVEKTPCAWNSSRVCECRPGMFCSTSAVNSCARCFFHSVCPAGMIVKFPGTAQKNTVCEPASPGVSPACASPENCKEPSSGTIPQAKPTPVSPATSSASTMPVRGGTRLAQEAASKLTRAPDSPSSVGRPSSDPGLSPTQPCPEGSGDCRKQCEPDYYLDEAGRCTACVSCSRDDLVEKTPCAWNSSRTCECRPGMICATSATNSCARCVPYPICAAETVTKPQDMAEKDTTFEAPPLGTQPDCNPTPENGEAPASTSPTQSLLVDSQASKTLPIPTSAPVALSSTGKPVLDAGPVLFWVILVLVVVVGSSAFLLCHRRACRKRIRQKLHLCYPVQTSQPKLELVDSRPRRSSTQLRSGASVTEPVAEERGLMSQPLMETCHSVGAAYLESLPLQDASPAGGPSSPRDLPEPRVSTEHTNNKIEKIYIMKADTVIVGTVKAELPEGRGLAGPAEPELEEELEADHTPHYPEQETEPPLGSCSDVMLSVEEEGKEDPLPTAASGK
# TEST METHOD NOTES: competitive FACS on L540 cells, unlabeled MAb 2.5 µg/ml; competitor: biotin-T6
MEASURED METRIC: inhibition of the binding of biotin-MAb (%)

{"columns": ["BINDER", "EXPERIMENTAL RESULT"],
 "data": [
  ["T13 MAb (antibody, V domains shown) VH: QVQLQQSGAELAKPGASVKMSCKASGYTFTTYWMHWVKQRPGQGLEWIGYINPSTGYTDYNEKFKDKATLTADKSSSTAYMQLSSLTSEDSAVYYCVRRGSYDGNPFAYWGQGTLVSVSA VL: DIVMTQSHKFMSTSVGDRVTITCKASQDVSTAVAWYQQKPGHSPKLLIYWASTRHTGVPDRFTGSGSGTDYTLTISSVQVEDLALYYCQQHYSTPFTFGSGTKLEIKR", 87.4],
  ["T25 MAb (antibody, V domains shown) VH: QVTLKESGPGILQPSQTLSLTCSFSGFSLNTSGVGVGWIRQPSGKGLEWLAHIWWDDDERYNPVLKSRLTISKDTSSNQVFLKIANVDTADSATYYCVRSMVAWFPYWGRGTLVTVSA VL: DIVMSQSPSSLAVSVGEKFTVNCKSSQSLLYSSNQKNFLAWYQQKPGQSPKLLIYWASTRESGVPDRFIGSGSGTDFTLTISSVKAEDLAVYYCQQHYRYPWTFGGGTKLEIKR", 1.5],
  ["T6 MAb (antibody, V domains shown) VH: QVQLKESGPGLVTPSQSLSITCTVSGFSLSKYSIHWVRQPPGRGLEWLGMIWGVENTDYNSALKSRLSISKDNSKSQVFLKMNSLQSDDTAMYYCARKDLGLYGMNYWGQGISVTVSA VL: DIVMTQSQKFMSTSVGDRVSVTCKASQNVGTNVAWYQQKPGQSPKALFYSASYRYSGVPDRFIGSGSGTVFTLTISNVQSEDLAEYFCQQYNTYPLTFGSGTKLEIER", 100],
  ["T24 MAb (antibody, V domains shown) VH: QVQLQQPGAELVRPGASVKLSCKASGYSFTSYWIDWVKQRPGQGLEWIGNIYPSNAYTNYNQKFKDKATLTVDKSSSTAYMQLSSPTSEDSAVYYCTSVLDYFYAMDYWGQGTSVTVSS VL: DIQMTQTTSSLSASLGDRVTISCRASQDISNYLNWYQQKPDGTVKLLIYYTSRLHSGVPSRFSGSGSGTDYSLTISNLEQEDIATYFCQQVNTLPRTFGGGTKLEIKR", 1.5]
]}

Where these numbers come from: patent US20060193771A1
